target: human fyn SH2 domain (Homo sapiens); assay: ELISA-based SH2 domain / pY peptide binding assay, fyn SH2 domain; settings: inhibition of binding of 0.1 uM biotinylated pY peptide to SH2 domain fusion protein
pIC50: −log10 of the molar value.
Property label: pIC50

>>> df
                                        smi  property_label  assay_value
0  CCCCCCNC(=O)[C@H]1CC[C@H](CNC(=O)c2ccc(C(=O)c3ccc(C(=O)O)cc3)cc2)CC1           pIC50       < 3.52

* * *

target: human src SH2 domain (Homo sapiens, UniProt P12931); construct: made in house; host or cells: E. coli AR120; assay: ELISA-based SH2 domain / pY peptide binding assay, src SH2 domain; details: inhibition of binding of 0.1 uM biotinylated pY peptide to SH2 domain fusion protein
Sequence (P12931 148-251): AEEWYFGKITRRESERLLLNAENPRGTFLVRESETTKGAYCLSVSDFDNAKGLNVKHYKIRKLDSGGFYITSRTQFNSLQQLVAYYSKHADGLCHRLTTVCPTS
So basically: is IC50 under 40 µM? Then 1. Not under? Then 0.

>>> print(df.to_string())
                                   compound  discrete_label
0  CCCCCCNC(=O)[C@H]1CC[C@H](CNC(=O)c2ccc(C(=O)c3ccc(C(=O)O)cc3)cc2)CC1               1
1  Cc1nnc(SCC2=C(C(=O)O)N3C(=O)[C@@H](NC(=O)C(N)c4ccc(C(=O)O)cc4)[C@H]3SC2)s1 (stereo partly drawn)               1
2  Cc1nc2sc3c(c2c2c1c(=O)[nH]n2C)CCC1(C3)OCCO1               0
3  Cc1nc2sc3c(c2c2[nH][nH]c(=O)c12)CCC1(C3)OCCO1               1
4  CCCNC(=O)[C@H]1CC[C@H](CNC(=O)/C=C/c2ccc(C=O)cc2)CC1               0

* * *

target: human lck SH2 domain (Homo sapiens); construct: made in house; host or cells: E. coli AR120; assay: ELISA-based SH2 domain / pY peptide binding assay, lck SH2 domain; conditions: inhibition of binding of 0.1 uM biotinylated pY peptide to SH2 domain fusion protein
Sequence (P06239 127-224 limits assumed): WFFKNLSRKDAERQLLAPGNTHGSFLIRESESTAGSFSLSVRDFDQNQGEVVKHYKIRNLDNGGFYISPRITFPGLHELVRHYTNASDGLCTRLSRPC
Property label: IC50

>>> df
                                        smi  property_label  assay_value
0  CCCCCCNC(=O)[C@H]1CC[C@H](CNC(=O)c2ccc(C(=O)c3ccc(C(=O)O)cc3)cc2)CC1            IC50     > 300 µM

* * *

target: human fyn SH2 domain (Homo sapiens, UniProt P06241)
Sequence (P06241 143-252): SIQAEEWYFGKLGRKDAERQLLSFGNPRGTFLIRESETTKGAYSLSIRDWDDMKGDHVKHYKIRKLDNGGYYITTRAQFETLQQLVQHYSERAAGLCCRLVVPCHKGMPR
Property label: Ki

>>> df
                                        smi  assay_value
0  CCCCCCNC(=O)[C@H]1CC[C@H](CNC(=O)c2ccc(C(=O)c3ccc(C(=O)O)cc3)cc2)CC1    > 1000 µM
